experiment: Plasma and brain concentrations, brain to plasma ratio 24 hr after last of five 10 mg/kg PO doses (Example 7); format: in vivo; settings: male, Sprague-Dawley, rat, brain homogenate, oral, 10 mg/kg, rats, brain homogenate, 24 hr after the last of five 10 mg/kg PO doses; mean; read-out: Tissue Homogenate Conc., Mean
EXPERIMENTAL_ENDPOINT: concentration at 24 h
Report the figure along with its unit, number first.

*Q* Entry Cc1cc(Nc2cc(N)ncn2)c(=O)n2c1C(=O)NC21CCC2(CC2)CC1 [4ET-03-053] has what concentration at 24 h?
*A* 85.6 ng/mL

* * *

assay: PK study in male Sprague-Dawley rats dosed once per day for five days, PO 25 mg/kg, 0.5% HPMC (Example 8); format: in vivo; conditions: male, Sprague-Dawley, rat, in vivo, po, 25 mg/kg, single PO 25 mg/kg dose, 0.5% HPMC suspension, mean (n = 3), read-out: t1/2 (converted)
EXPERIMENTAL_ENDPOINT: half-life (h)
State the answer as a number, implicitly in h.

*Q* Entry Cc1cc(Nc2cc(N)ncn2)c(=O)n2c1C(=O)NC21CCC2(CC2)CC1 [4ET-03-053] has what half-life?
*A* 6.82

* * *

test: PK study in male Sprague-Dawley rats dosed once per day for five days, PO 10 mg/kg, 0.5% HPMC (Example 7); type: in vivo; settings: male, Sprague-Dawley, rat, in vivo, po, 10 mg/kg, male Sprague-Dawley rats, single PO 10 mg/kg dose, 0.5% HPMC suspension; mean (n = 3); read-out: Cmax
EXPERIMENTAL_ENDPOINT: Cmax (ng/mL)
State the answer as a number, implicitly in ng/mL.

*Q* Entry Cc1cc(Nc2cc(N)ncn2)c(=O)n2c1C(=O)NC21CCC2(CC2)CC1 has what Cmax?
*A* 22300

* * *

assay: PK study in male Sprague-Dawley rats dosed once per day for five days, PO 25 mg/kg, 0.5% HPMC (Example 8); format: in vivo; conditions: male, Sprague-Dawley, rat, in vivo, po, 25 mg/kg, day five of daily PO 25 mg/kg, 0.5% HPMC suspension, individual animals, read-out: t1/2 (converted)
EXPERIMENTAL_ENDPOINT: half-life (h)
State the answer as a number, implicitly in h.

*Q* Entry Cc1cc(Nc2cc(N)ncn2)c(=O)n2c1C(=O)NC21CCC2(CC2)CC1 [4ET-03-053] has what half-life?
*A* 11

* * *

assay: PK study in male Sprague-Dawley rats dosed once per day for five days, PO 25 mg/kg, 0.5% HPMC (Example 8); type: in vivo; conditions: male, Sprague-Dawley, rat, in vivo, po, 25 mg/kg, single PO 25 mg/kg dose, 0.5% HPMC suspension, individual animals, read-out: AUCinf
EXPERIMENTAL_ENDPOINT: AUC(0-inf) (µg·h/mL)
State the answer as a number, implicitly in µg·h/mL.

*Q* Entry Cc1cc(Nc2cc(N)ncn2)c(=O)n2c1C(=O)NC21CCC2(CC2)CC1 has what AUC(0-inf)?
*A* 315

* * *

test: PK study in male Sprague-Dawley rats dosed once per day for five days, PO 10 mg/kg, 0.5% HPMC (Example 7); assay type: in vivo; settings: male, Sprague-Dawley, rat, in vivo, po, 10 mg/kg, male Sprague-Dawley rats, single PO 10 mg/kg dose, 0.5% HPMC suspension; individual animals
EXPERIMENTAL_ENDPOINT: MRT inf

*Q* Entry Cc1cc(Nc2cc(N)ncn2)c(=O)n2c1C(=O)NC21CCC2(CC2)CC1 has what MRT inf?
*A* 7.18 h

* * *

assay: PK study in male Sprague-Dawley rats dosed once per day for five days, PO 10 mg/kg, 0.5% HPMC (Example 7); type: in vivo; conditions: male, Sprague-Dawley, rat, in vivo, po, 10 mg/kg, Sprague-Dawley rats, following five daily PO doses of 10 mg/kg, 0.5% HPMC suspension; read-out: terminal half-life (converted)
EXPERIMENTAL_ENDPOINT: half-life (h)
State the answer as a number, implicitly in h.

*Q* Entry Cc1cc(Nc2cc(N)ncn2)c(=O)n2c1C(=O)NC21CCC2(CC2)CC1 has what half-life?
*A* 6.82

* * *

assay: PK study in male Sprague-Dawley rats dosed once per day for five days, PO 10 mg/kg, 0.5% HPMC (Example 7); assay type: in vivo; details: male, Sprague-Dawley, rat, in vivo, po, 10 mg/kg, Sprague-Dawley rats, following five daily PO doses of 10 mg/kg, 0.5% HPMC suspension; read-out: total systemic exposure (AUCinf)
EXPERIMENTAL_ENDPOINT: AUC(0-inf) (µg·h/mL)
State the answer as a number, implicitly in µg·h/mL.

*Q* Entry Cc1cc(Nc2cc(N)ncn2)c(=O)n2c1C(=O)NC21CCC2(CC2)CC1 has what AUC(0-inf)?
*A* 308

* * *

test: PK study in male Sprague-Dawley rats, IV 0.5 mg/kg and PO 1 mg/kg in 10% DMA/PG (Example 5); assay type: in vivo; conditions: male, Sprague-Dawley, rat, in vivo, iv, 0.5 mg/kg, total systemic exposure (AUCinf)
EXPERIMENTAL_ENDPOINT: AUC(0-inf) (ng·h/mL)
State the answer as a number, implicitly in ng·h/mL.

*Q* Entry Cc1cc(Nc2cc(N)ncn2)c(=O)n2c1C(=O)NC21CCC2(CC2)CC1 [4ET-03-053] has what AUC(0-inf)?
*A* 4500

* * *

test: PK study in male Sprague-Dawley rats dosed once per day for five days, PO 10 mg/kg, 0.5% HPMC (Example 7); assay type: in vivo; conditions: male, Sprague-Dawley, rat, in vivo, po, 10 mg/kg, male Sprague-Dawley rats, single PO 10 mg/kg dose, 0.5% HPMC suspension; mean (n = 3)
EXPERIMENTAL_ENDPOINT: Tmax (h)
State the answer as a number, implicitly in h.

*Q* Entry Cc1cc(Nc2cc(N)ncn2)c(=O)n2c1C(=O)NC21CCC2(CC2)CC1 has what Tmax?
*A* 1.67

* * *

experiment: PK study in CD-1 male mice with IV and PO dosing (Example 3); assay type: in vivo; conditions: mouse, in vivo; CD-1 male mice, 10 mg/kg PO, individual animals; read-out: t1/2 (converted)
EXPERIMENTAL_ENDPOINT: half-life
Report the figure along with its unit, number first.

*Q* Entry Cc1cc(Nc2cc(N)ncn2)c(=O)n2c1C(=O)NC21CCC2(CC2)CC1 [4ET-03-053] has what half-life?
*A* 5.11 h

* * *

Test: PK study in male Sprague-Dawley rats, IV 0.5 mg/kg and PO 1 mg/kg in 10% DMA/PG (Example 5)
Format: in vivo
Settings: male, Sprague-Dawley, rat, in vivo, iv, 0.5 mg/kg, male Sprague-Dawley rats, 0.5 mg/kg IV, at 24 h; read-out: last measurable concentration (Clast)
Description: Example 5: PK study of 4ET-03-053 in male Sprague-Dawley rats with IV (0.5 mg kg; 10% DMI 15% EtOH 35% PG 40% NS) and PO (1 mg kg; 10% DMA PG) dosing In male Sprague-Dawley rats, following IV administration with 0.5 mg/kg 4ET-03-053, plasma concentrations declined in a multiphasic manner with an initial concentration (Co) of 1.24 ug/mL and a last measurable concentration (Clast) of 33.2 ng/mL at 24 h post dose. […]
EXPERIMENTAL_ENDPOINT: concentration at 24 h (µg/mL)
State the answer as a number, implicitly in µg/mL.

*Q* Entry Cc1cc(Nc2cc(N)ncn2)c(=O)n2c1C(=O)NC21CCC2(CC2)CC1 [4ET-03-053] has what concentration at 24 h?
*A* 0.0332

* * *

assay: PK study in male Sprague-Dawley rats dosed once per day for five days, PO 25 mg/kg, 0.5% HPMC (Example 8); format: in vivo; settings: male, rat, in vivo, after the last of five daily 25 mg/kg PO doses, 0.5% HPMC suspension
EXPERIMENTAL_ENDPOINT: bioavailability

*Q* Entry Cc1cc(Nc2cc(N)ncn2)c(=O)n2c1C(=O)NC21CCC2(CC2)CC1 [4ET-03-053] has what bioavailability?
*A* 35.5%

* * *

test system: P-gp (human MDR1, ABCB1); test: in vitro; conditions: dog, MDCK-MDR1
EXPERIMENTAL_ENDPOINT: Papp A→B
Report the figure along with its unit, number first.

*Q* Entry Cc1cc(Nc2cc(NC(=O)C3CC4(CNC4)C3)ncn2)c(=O)n2c1C(=O)NC21CCC2(CC2)CC1 has what Papp A→B?
*A* 0.3 ×10⁻⁶ cm/s

* * *

test: PK study in male Sprague-Dawley rats dosed once per day for five days, PO 1 mg/kg, 0.5% HPMC (Example 6); format: in vivo; settings: male, Sprague-Dawley, rat, in vivo, po, 1 mg/kg, male Sprague-Dawley rats, single (first) PO 1 mg/kg dose, 0.5% HPMC suspension; mean (n = 3); read-out: Cmax
EXPERIMENTAL_ENDPOINT: Cmax
Report the figure along with its unit, number first.

*Q* Entry Cc1cc(Nc2cc(N)ncn2)c(=O)n2c1C(=O)NC21CCC2(CC2)CC1 has what Cmax?
*A* 2580 ng/mL
